Study Target: T1, BCMA (Homo sapiens (Human), UniProt Q02223 1-54, limits assumed)
T1 sequence: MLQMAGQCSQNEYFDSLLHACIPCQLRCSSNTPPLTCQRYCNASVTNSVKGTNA
Assay Remarks: ELISA, format not described
Set-up: unit not given here
Consider the cut-off 10. If the recorded ELISA_avg is strictly smaller, the label is rule met; if not, the label is rule not met.

>>> df
                                     binder   class_label
0  D-domain SEQ ID NO: 281 (designed binder) MGSWIEFKYKLAIIKFYLEALGGSEAELAHFEHWIADFEFVLQQYKGKGNPEVEALRKEAAAIRDELQAYRHN  rule not met
1  D-domain SEQ ID NO: 160 (designed binder) MGSWVEFEWRLEAIVVRLRALGGSEAELAAFEKEIAAFESELQAYKGKGNPEVEHLRDKAAYIRYMLQAYRHN  rule not met
2  D-domain SEQ ID NO: 293 (designed binder) MGSWYEFKHRLAVIKYMLEALGGSEAELAFFENWIAQFEHELQTYKGKGNPEVEALRKEAAAIRDELQAYRHN      rule met
3  D-domain SEQ ID NO: 128 (designed binder) MGSWVEFHARLDAIYTRLGALGGSEAELAAFEKEIAAFESELQAYKGKGNPEVEYLRVLAAHIRISLQAYRHN      rule met
4  D-domain SEQ ID NO: 251 (designed binder) MGSWHGFKYRLAVIKWYLEALGGSEAELAMFEGWIAQFEITLQQYKGKGNPEVEALRKEAAAIRDELQAYRHN      rule met
5  D-domain SEQ ID NO: 282 (designed binder) MGSWQNFKYHLAMIKWYLEALGGSEAELANFEEFIAQFEINLQHYKGKGNPEVEALRKEAAAIRDELQAYRHN      rule met
6  D-domain SEQ ID NO: 117 (designed binder) MGSWSEFGQRLSAIWERLLALGGSEAELAAFEKEIAAFESELQAYKGKGNPEVEALRADAAFIRIWLQAYRHN  rule not met
7  D-domain SEQ ID NO: 252 (designed binder) MGSWQGFKYRLAVIKWMLEALGGSEAELAFFENWIAEFETKLQQYKGKGNPEVEALRKEAAAIRDELQAYRHN      rule met
8  D-domain SEQ ID NO: 67 (designed binder) MGSWIEFQQRLDAIFYRLYALGGSEAELAAFEKEIAAFESELQAYKGKGNPEVENLRDMAAIIRKQLQAYRHN  rule not met
9  D-domain SEQ ID NO: 54 (designed binder) MGSWVEFSWRLEAIRQRLQALGGSEAELAAFEKEIAAFESELQAYKGKGNPEVESLRSYAARIRQELQAYRHN  rule not met
